Molecular target: human TASK-1 (Homo sapiens, UniProt O14649)
Sequence (O14649 whole entry): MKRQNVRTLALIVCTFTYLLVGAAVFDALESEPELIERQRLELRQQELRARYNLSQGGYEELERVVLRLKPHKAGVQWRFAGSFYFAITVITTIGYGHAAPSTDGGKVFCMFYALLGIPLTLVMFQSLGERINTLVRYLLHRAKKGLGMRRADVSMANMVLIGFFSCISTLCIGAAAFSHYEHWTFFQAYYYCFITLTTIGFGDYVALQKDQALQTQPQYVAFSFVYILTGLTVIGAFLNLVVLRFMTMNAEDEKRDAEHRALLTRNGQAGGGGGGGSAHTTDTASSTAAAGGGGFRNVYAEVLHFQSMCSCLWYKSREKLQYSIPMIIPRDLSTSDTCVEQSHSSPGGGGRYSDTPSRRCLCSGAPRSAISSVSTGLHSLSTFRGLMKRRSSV
Experiment: Inhibition of recombinant TASK-1 in stably transfected CHO cells, KCl-induced depolarization, voltage-sensitive dye (B-2)
Format: cell-based
Design: expressed in transfected cells; host or cells: stably transfected CHO cells
Details: depolarization induced by 40 mM potassium chloride, some mean values from multiple determinations
I'd appreciate it if you could supply IC50 values for the items below.

Please review the entries below; each comes with its answer.
smiles_input=CCOC(=O)N1C2COCC1CN(Cc1c(-c3ccc(Cl)cc3)nc3ccccn13)C2 assay_system="human TASK-1 (Homo sapiens, UniProt O14649)" value_reported="230 nM"
smiles_input=COc1ccc(C)c(C(=O)N2C3CCC2CN(Cc2c(-c4ccc(C(C)C)cc4)nc4ccccn24)C3)n1 assay_system="human TASK-1 (Homo sapiens, UniProt O14649)" value_reported="280 nM"
smiles_input=O=C(c1cccc(Cl)c1)N1C2COCC1CN(Cc1c(-c3ccc(Cl)cc3)nc3ccccn13)C2 assay_system="human TASK-1 (Homo sapiens, UniProt O14649)" value_reported="1000 nM"

Inquiry: Identify IC50 associated with the molecule `O=C(C1CCCC1)N1C2CCC1CN(Cc1c(-c3ccc(Br)cc3)nc3ccccn13)C2`
Reply text: 240 nM

---

Target: human TASK-3 (Homo sapiens)
Test: Inhibition of recombinant TASK-3 in stably transfected CHO cells, KCl-induced depolarization, voltage-sensitive dye (B-2)
Type: cell-based
Design: expressed in transfected cells; host or cells: stably transfected CHO cells
Conditions: depolarization induced by 40 mM potassium chloride, some mean values from multiple determinations
outcome-measure: pIC50
Numbers only, as −log10 of the molar value.

Some solved cases for reference:
molecule="COc1ccc(C)c(C(=O)N2C3CCC2CN(Cc2c(-c4ccc(C(C)C)cc4)nc4ccccn24)C3)n1 [Example 145]" assay_system="human TASK-3 (Homo sapiens)" outcome_measure=pIC50 value_reported=7.57
molecule="O=C(C1CCCO1)N1C2CC1CN(Cc1c(-c3ccc(Cl)cc3)nc3ccccn13)C2 (racemic) [Example 115]" assay_system="human TASK-3 (Homo sapiens)" outcome_measure=pIC50 value_reported=5.62
molecule="O=C(c1nccs1)N1C2CCC1CN(Cc1c(-c3ccc(Cl)cc3)nc3ccccn13)C2 [Example 147]" assay_system="human TASK-3 (Homo sapiens)" outcome_measure=pIC50 value_reported=7.82
molecule="COc1cccc(C(=O)N2C[C@@H]3CC[C@H]2CN3Cc2c(-c3ccc(Cl)cc3)nc3ccccn23)n1 (single isomer, unassigned; enantiomer 1) [Example 21]" assay_system="human TASK-3 (Homo sapiens)" outcome_measure=pIC50 value_reported=7.22
molecule="COc1cccc(C(=O)N2C3CCC2CN(Cc2c(-c4ccc(Cl)cn4)nc4ccccn24)C3)n1 [Example 33]" assay_system="human TASK-3 (Homo sapiens)" outcome_measure=pIC50 value_reported=7.59
molecule="O=C(N1CCOCC1)N1C2CCC1CN(Cc1c(-c3ccc(Cl)cc3)nc3ccccn13)C2 [Example 173]" assay_system="human TASK-3 (Homo sapiens)" outcome_measure=pIC50 value_reported=7.49
molecule="O=C(C1CCCC1)N1CC2CCC1CN2Cc1c(-c2ccc(Cl)cc2)nc2ccccn12 (single isomer, unassigned) [Example 37]" assay_system="human TASK-3 (Homo sapiens)" outcome_measure=pIC50 value_reported=7.20
molecule="Cc1cccc(C(=O)N2CC3CCC2CN3Cc2c(-c3ccc(Cl)cc3)nc3ccccn23)c1 (single isomer, unassigned) [Example 53]" assay_system="human TASK-3 (Homo sapiens)" outcome_measure=pIC50 value_reported=7.47

Batch of 6 molecules: report pIC50 for each.
1. COc1ccc(Cl)c(C(=O)N2CC3CCC2CN3Cc2c(-c3ccc(Cl)cn3)nc3ccccn23)n1 (single isomer, unassigned) [Example 67]
2. O=C(OC1CCCC1)N1C2COCC1CN(Cc1c(-c3ccc(Cl)cc3)nc3ccccn13)C2 [Example 196]
3. COc1ccc(Cl)c(C(=O)N2CC3CCC2CN3Cc2c(-c3ccc(Br)cc3)nc3ccccn23)n1 (racemic) [Example 199]
4. CC(C)c1csc(C(=O)N2C3CCC2CN(Cc2c(-c4ccc(Cl)cc4)nc4ccccn24)C3)n1 [Example 146]
5. CN(C)C(=O)N1C2CCC1CN(Cc1c(-c3ccc(Cl)cc3)nc3ccccn13)C2 [Example 180]
6. CCCOC(=O)N1C2COCC1CN(Cc1c(-c3ccc(Cl)cc3)nc3ccccn13)C2 [Example 197]

Reply text:
1. 6.66
2. 7.28
3. 8.74
4. 6.47
5. 7.64
6. 7.89

---

Target: human TASK-1 (Homo sapiens, UniProt O14649)
Experiment: Inhibition of recombinant TASK-1 in stably transfected CHO cells, KCl-induced depolarization, voltage-sensitive dye (B-2)
Assay type: cell-based
Design: expressed in transfected cells; host or cells: stably transfected CHO cells
Details: depolarization induced by 40 mM potassium chloride, some mean values from multiple determinations
Checkbox rule: IC50 lower than 1 µM = TRUE; IC50 not lower than 1 µM = FALSE.

Completed entries (count: 2):
molecule=O=C(c1ccccc1F)N1CC2CCC(C1)N2Cc1c(-c2ccc(Cl)cc2)nc2ccccn12 assigned_category=TRUE
molecule=CCN(C(=O)N1C2COCC1CN(Cc1c(-c3ccc(Cl)cc3)nc3ccccn13)C2)c1ccccc1 assigned_category=FALSE

Inquiry: Confirm or reject: IC50 of `CC(C)(C)OC(=O)N1C2COCC1CN(Cc1c(-c3ccc(Cl)cc3)nc3ccccn13)C2` lies strictly below 1 µM
Reply text: TRUE

Inquiry: Quick check: does COc1cccc(C(=O)N2CC3CCC2CN3Cc2c(-c3ccc(Cl)cn3)nc3ccccn23)n1 (single isomer, unassigned; enantiomer 1) [Example 26] have IC50 under 1 µM?
Reply text: TRUE

Inquiry: Hi there! Is IC50 for `CC(C)c1ccc(-c2nc3ccccn3c2CN2CC3CCC(C2)N3C(=O)OC(C)(C)C)cc1` below 1 µM, do you know?
Reply text: FALSE

Inquiry: Decide: IC50 of `COc1ccc(Cl)c(C(=O)N2C3CCC2CN(Cc2c(-c4ccc(Br)cc4)nc4ccccn24)C3)n1` strictly below 1 µM?
Reply text: TRUE

Inquiry: Determine whether this molecule shows IC50 lower than 1 µM (ties excluded): `O=C(NC1CC1)N1C2CCC1CN(Cc1c(-c3ccc(Cl)cc3)nc3ccccn13)C2`
Reply text: FALSE

Inquiry: Is the reported IC50 for `O=C(c1nccs1)N1C2CCC1CN(Cc1c(-c3ccc(Cl)cc3)nc3ccccn13)C2` strictly below 1 µM?
Reply text: TRUE

Inquiry: Determine whether this molecule shows IC50 lower than 1 µM (ties excluded): `CCOc1cccc(C(=O)N2C3CC2CN(Cc2c(-c4ccc(Cl)cc4)nc4ccccn24)C3)c1`
Reply text: FALSE

Inquiry: Answer whether the molecule `O=C(C1CCCC1)N1C2COCC1CN(Cc1c(-c3ccc(Cl)cc3)nc3ccccn13)C2` has IC50 strictly less than 1 µM
Reply text: TRUE

Inquiry: Record `CC(C)c1ccc(-c2nc3ccccn3c2CN2CC3CC(C2)N3C(=O)C2CCCC2)cc1` : is its IC50 strictly below 1 µM?
Reply text: FALSE

Inquiry: Threshold test, IC50 < 1 µM: `COc1cccc(C(=O)N2C3COCC2CN(Cc2c(-c4ccc(Cl)cc4)nc4ccccn24)C3)c1`
Reply text: FALSE

Inquiry: Lab log: compare recorded IC50 with 1 µM; is it strictly lower for `O=C(c1ccccc1F)N1C2CCC1CN(Cc1c(-c3ccc(Br)cc3)nc3ccccn13)C2` ?
Reply text: TRUE

---

Target: human TASK-3 (Homo sapiens, UniProt Q9NPC2)
Sequence (Q9NPC2 whole entry): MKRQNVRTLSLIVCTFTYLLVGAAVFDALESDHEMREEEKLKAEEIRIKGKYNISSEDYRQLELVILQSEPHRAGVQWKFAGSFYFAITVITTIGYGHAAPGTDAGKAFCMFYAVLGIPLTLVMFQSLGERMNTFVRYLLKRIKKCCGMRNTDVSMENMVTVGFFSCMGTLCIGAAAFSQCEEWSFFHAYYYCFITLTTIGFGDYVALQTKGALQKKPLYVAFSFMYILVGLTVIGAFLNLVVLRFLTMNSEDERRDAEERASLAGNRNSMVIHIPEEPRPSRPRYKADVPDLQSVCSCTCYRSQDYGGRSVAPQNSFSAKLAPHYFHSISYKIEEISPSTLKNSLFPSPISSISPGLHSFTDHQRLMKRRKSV
Assay: Inhibition of recombinant TASK-3 in stably transfected CHO cells, KCl-induced depolarization, voltage-sensitive dye (B-2)
Assay type: cell-based
Set-up: expressed in transfected cells; host or cells: stably transfected CHO cells
Details: depolarization induced by 40 mM potassium chloride, some mean values from multiple determinations
Method: B-2. Inhibition of Recombinant TASK-1 and TASK-3 In Vitro The investigations on the inhibition of the recombinant TASK-1 and TASK-3 channels were conducted using stably transfected CHO cells. […] 6 (5), 305-312 (2001); Molecular Devices FLIPR Application Note: Measuring membrane potential using the FLIPR® membrane potential assay kit on Fluorometric Imaging Plate Reader (FLIPR®) systems, http://www.moleculardevices.com/reagents-supplies/assay-kits/ion-channels/flipr-membrane-potential-assay-kits]. […]
// returns N unless IC50 is strictly below 200 nM, in which case Y

molecule="CC(C)NC(=O)N1C2CCC1CN(Cc1c(-c3ccc(Cl)cc3)nc3ccccn13)C2 [Example 154]" assigned_category=Y

Inquiry: IC50 strictly < 200 nM for this molecule? O=C(N1CCCC1)N1C2COCC1CN(Cc1c(-c3ccc(Cl)cc3)nc3ccccn13)C2 [Example 192]
Reply text: Y

Inquiry: Hi there! Is IC50 for COc1cccc(C(=O)N2CC3CCC2CN3Cc2c(-c3ccc(C(C)C)cc3)nc3ccccn23)n1 (single isomer, unassigned) [Example 61] below 200 nM, do you know?
Reply text: Y
